Measured values drawn from ChEMBL document CHEMBL2150994 for this set.

- protocol: AUC (0 to infinity) in fasted rat at 10 mg/kg, iv
- Assay type: ADME, organism-based
- Set-up: time infinity, dose 10 mg/kg, route intravenous
- condition: plasma
assay.readout: AUC(0-inf) (ng·h/mL)

| smiles.code | assay.readout | readout.number |
| --- | --- | --- |
| O=C(O)c1cccc(-c2cccc(CCS)c2C(=O)O)c1 | AUC(0-inf) | 90600 |

###

- protocol: Terminal half life in fasted rat at 10 mg/kg, iv
- Format: ADME, organism-based
- Design: dose 10 mg/kg, route intravenous
- condition: in vivo, read-out: beta t1/2 (converted)

| smiles.code | unit.of.measure | half-life |
| --- | --- | --- |
| O=C(O)c1cccc(-c2cccc(CCS)c2C(=O)O)c1 | h | 3.6 |
